Target: T1, rhEphA5 antigen (Homo sapiens, UniProt P54756)
T1 construct: purchased R and D systems 3036-A5
Experiment: ka (1/Ms)
property: ka (M⁻¹ s⁻¹)

molecule	recorded_value
VH6/VK2: humanized anti-EphA5 antibody, VH SEQ ID NO:7, VL SEQ ID NO:10 (antibody, V domains shown) VH: EVQLVESGGGLVQPGGSLKLSCAASGFTFSTFGIHWVRQAPGKGLEWVASISGASTTIYYADSVKGRFTISRDNSKNTLYLQMNSLRAEDTAVYYCARYGTSFPYGLDYWGQGTLVTVSS VL: DIVMTQSPDSLAVSLGERATINCKASQSVDYDGDSYMNWYQQKPGKAPKLLIYGASNLESGIPDRFSGSGSGTDFTLTISRLEPEDAASYYCQQSNEDPFTFGQGTKLEIK	1.74e-09
VH5/VK4: humanized anti-EphA5 antibody, VH SEQ ID NO:6, VL SEQ ID NO:12; lead variant (antibody, V domains shown) VH: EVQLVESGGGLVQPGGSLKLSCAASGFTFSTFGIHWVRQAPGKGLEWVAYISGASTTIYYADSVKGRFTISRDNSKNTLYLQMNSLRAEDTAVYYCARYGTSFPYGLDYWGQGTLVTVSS VL: DIVMTQSPDSLAVSLGERATINCKSSQSVDYDGDSYMNWYQQKPGKAPKLLIYGASNLESGIPDRFSGSGSGTDFTLTISRLEPEDAASYYCQQSNEDPFTFGQGTKLEIK	1.35e-06
VH6/VK3: humanized anti-EphA5 antibody, VH SEQ ID NO:7, VL SEQ ID NO:11 (antibody, V domains shown) VH: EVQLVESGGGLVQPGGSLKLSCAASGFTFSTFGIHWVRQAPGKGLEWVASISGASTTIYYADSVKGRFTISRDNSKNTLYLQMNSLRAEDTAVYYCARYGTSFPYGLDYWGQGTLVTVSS VL: DIVMTQSPDSLAVSLGERATINCKASQSVDYDGDSYMNWYQQKPGKAPKLLIYGASNLESGIPDRFSGSGSGTDFTLTISRLEPEDAAVYYCQQSNEDPFTFGQGTKLEIK	5.22e-09
VH2/VK4: humanized anti-EphA5 antibody, VH SEQ ID NO:3, VL SEQ ID NO:12 (antibody, V domains shown) VH: EVTLVESGGGLVQPGGSLKLSCAASGFTFSTFGIHWVRQAPGKGLEWVAYISGASTTIYYADTVKGRFTISRDNSKNTLYLQMNSLRSEDTAMYYCARYGTSFPYGLDYWGQGTLVTVSS VL: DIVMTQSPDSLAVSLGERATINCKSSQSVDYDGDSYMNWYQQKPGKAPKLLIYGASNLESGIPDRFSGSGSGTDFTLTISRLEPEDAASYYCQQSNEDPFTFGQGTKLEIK	1.37e-06
VH6/VK1: humanized anti-EphA5 antibody, VH SEQ ID NO:7, VL SEQ ID NO:9 (antibody, V domains shown) VH: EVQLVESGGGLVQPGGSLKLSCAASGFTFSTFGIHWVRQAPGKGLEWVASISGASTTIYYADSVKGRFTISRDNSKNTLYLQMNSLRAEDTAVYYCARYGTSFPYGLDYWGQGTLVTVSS VL: DIVMTQSPGSLAVSLGERATINCKASQSVDYDGDSYMNWYQQKPGKAPKLLIYGASNLESGIPDRFSGSGSGTDFTLTISRLEEEDAASYYCQQSNEDPFTFGQGTKLEIK	1.65e-09
VH2/VK5: humanized anti-EphA5 antibody, VH SEQ ID NO:3, VL SEQ ID NO:13 (antibody, V domains shown) VH: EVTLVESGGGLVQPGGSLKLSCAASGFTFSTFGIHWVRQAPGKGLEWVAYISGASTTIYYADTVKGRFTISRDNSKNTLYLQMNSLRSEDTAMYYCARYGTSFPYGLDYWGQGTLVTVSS VL: DIVMTQSPDSLAVSLGERATINCKSSQSVDYDGDSYMNWYQQKPGKAPKLLIYGASNLESGIPDRFSGSGSGTDFTLTISRLEPEDAAVYYCQQSNEDPFTFGQGTKLEIK	1.34e+06
VH5/VK2: humanized anti-EphA5 antibody, VH SEQ ID NO:6, VL SEQ ID NO:10; lead variant (antibody, V domains shown) VH: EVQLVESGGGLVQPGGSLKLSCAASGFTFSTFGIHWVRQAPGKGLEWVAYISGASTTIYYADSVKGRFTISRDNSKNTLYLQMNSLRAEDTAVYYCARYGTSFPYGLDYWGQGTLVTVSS VL: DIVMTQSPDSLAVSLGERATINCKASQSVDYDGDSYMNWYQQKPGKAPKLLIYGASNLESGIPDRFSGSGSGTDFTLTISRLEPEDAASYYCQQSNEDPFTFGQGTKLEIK	1.38e-06
VH2/VK1: humanized anti-EphA5 antibody, VH SEQ ID NO:3, VL SEQ ID NO:9 (antibody, V domains shown) VH: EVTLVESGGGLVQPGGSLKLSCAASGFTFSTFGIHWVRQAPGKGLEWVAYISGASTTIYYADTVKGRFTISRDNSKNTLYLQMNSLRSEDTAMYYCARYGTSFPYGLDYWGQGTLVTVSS VL: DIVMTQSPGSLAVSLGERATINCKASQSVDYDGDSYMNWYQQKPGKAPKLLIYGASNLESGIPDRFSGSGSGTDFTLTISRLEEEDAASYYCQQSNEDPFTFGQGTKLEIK	1.35e-06
